Sourced from PubChem BioAssay AID1996

- setupConditions: buffer; pH 7.4; 200.0 µM
property: solubility kinetic (µg/mL)
Just the number in µg/mL, nothing appended.

# input Reported solubility kinetic for Nc1ccc2c(c1)OC1(CCCCC1)O2 : what is it?
# output 19.1

# input Which value of solubility kinetic has been reported for COC(=O)c1cc(C(=O)OC)n(Cc2ccc(F)cc2)c1C in the records?
# output 10.6

# input Recorded solubility kinetic for Cc1ccc(NC(=S)N2CCC(NC(=O)c3ccco3)CC2)cc1C , please?
# output 39.2

# input So what's the measured solubility kinetic for this one? CCC1CN(C(=O)Nc2cccc(C)c2)c2cc(C)ccc2O1 (stereo unspecified)
# output 7.5

# input What solubility kinetic value was documented for this compound, O=C(Nc1cccc2cccnc12)c1ccccc1Cl ?
# output 0.3

# input If you can, please state the reported solubility kinetic value of CCCCCCc1ccc(OC(=O)c2ccncc2)cc1 .
# output 0.7

# input # lookup: solubility kinetic of CCOC(=O)CN1C(=O)S/C(=C\c2ccc3c(c2)OCO3)C1=O
# output 1.8

# input Fill in: solubility kinetic of CCc1ccc(OCC(=O)NC2CC(C)(C)NC(C)(C)C2)cc1 is ___
# output 44

# input For the compound CC1=CC(=C(C#N)C#N)c2ccccc2N1C , what solubility kinetic is on record?
# output 2.7

# input # solubility kinetic lookup, item COCCn1c(-c2ccc(F)cc2)nc2oc3cc(OC)ccc3c(=O)c2c1=O
# output 21.1

# input For the compound CC(Cc1ccccc1)NC(=S)CN1CCCC1=S (stereo unspecified) , what solubility kinetic is on record?
# output 38.9

# input Look at this compound and give its reported solubility kinetic. O=C(Nc1cccc(F)c1)c1ccco1
# output 26.7

# input Tell me the measured solubility kinetic of Cc1ccc2oc(C(=O)NCCC3CCCCO3)c(C)c2c1 (stereo unspecified) , please.
# output 43.1

# input Can you look up the measured solubility kinetic of Cc1ccc(-n2c(=O)[nH]c3ncccc3c2=O)cc1 for me?
# output 6.9

# input Query: solubility kinetic; subject: Cl.c1ccc(-c2ccc(CNC3CC3)cc2)cc1
# output 37.9

----------
- setupConditions: buffer; pH 7.4; 200.0 µM
solubility kinetic by entry:
# output: bare number, implied unit µg/mL

compound: CNc1nc2c(C)cccn2c(=O)c1C=Nc1ccc(OC)cc1
property: solubility kinetic
units: µg/mL
reading: 0.9

compound: O=C1NC(c2ccc(O)cc2)Nc2ccccc21 (configuration not stated)
property: solubility kinetic
units: µg/mL
reading: 29.2

compound: O=C(Nc1cccnc1Cl)c1cccc(F)c1
property: solubility kinetic
units: µg/mL
reading: 36.1

compound: CCCCOc1ccc(OCCNC(=O)c2ccco2)cc1
property: solubility kinetic
units: µg/mL
reading: 22.5

# input Which solubility kinetic is reported for this compound? Cc1cn(CC(=O)c2ccccc2)c2ccccc12
# output 1.2

----------
- setupConditions: buffer; pH 7.4; 200.0 µM
solubility kinetic vs 30 µg/mL: at or above is 1, below is 0.

Check out these entries, answers already filled in.
compound: COC(=O)c1ccc(/C=C/C(=O)OCC(=O)Nc2cc(C)on2)cc1
className: 0
//
compound: COc1cc(CC(=O)Nc2cccc(S(=O)(=O)N(C)c3ccccc3)c2)cc(OC)c1OC
className: 0
//
compound: COc1cc2ncnc(NCc3cccc(F)c3F)c2cc1OC
className: 0
//
compound: CN(C)S(=O)(=O)c1ccc(C(=O)NC(=O)CSc2nncs2)cc1
className: 1
//
compound: O=C(O)c1cc(S(=O)(=O)N2CCN(S(=O)(=O)c3ccc4ccccc4c3)CC2)ccc1Br
className: 1
//
compound: Cc1nn(CC(=O)OCC(=O)Nc2cccc(S(N)(=O)=O)c2)c(C)c1[N+](=O)[O-]
className: 1
//
compound: COC(=O)/C(C#N)=C/c1c(Oc2cccc(C)c2C)nc2ccccn2c1=O
className: 0
//
compound: Cc1ccc(NS(=O)(=O)c2ccccc2[N+](=O)[O-])cc1S(=O)(=O)N1CCCCC1
className: 1

# input Does the compound CCC(=O)N(CCC1(C(C)C)CCOC(C)(C)C1)C(C)c1cccs1 (centres undefined) have recorded solubility kinetic that is 30 µg/mL or more?
# output 1

# input Identify whether the reported solubility kinetic of the following compound is 30 µg/mL or greater: COc1cc(CCC(=O)N2CC(C)OC(C)C2)cc(OC)c1OC (centres undefined)
# output 1

# input Form field: solubility kinetic at least 30 µg/mL? Entry: CC(C)(C)C(=O)Nc1ccc(N2CCN(S(C)(=O)=O)CC2)cc1
# output 0

# input Identify whether the reported solubility kinetic of the following compound is 30 µg/mL or greater: Cc1ccc[n+](CC(=O)Nc2ccc(N(C)C)cc2)c1.[Cl-]
# output 1

# input Reported solubility kinetic at or above 30 µg/mL? N#Cc1ccccc1OCC(=O)OCC(=O)NC1CCCCCC1
# output 1

# input Is solubility kinetic at least 30 µg/mL? Consider CCOC(=O)Cc1csc(NC(=O)c2ccc(C)cc2)n1
# output 1

# input Is solubility kinetic at least 30 µg/mL? Consider O=C(CSc1ncccn1)NCC1CCCO1 (centres undefined)
# output 1

# input Quick check, solubility kinetic >= 30 µg/mL? COC(=O)c1cccc(NC(=O)CC2NCCNC2=O)c1 (centres undefined)
# output 1

# input Is solubility kinetic at least 30 µg/mL? Consider S=C(NCc1ccccc1)NCc1ccccn1
# output 1

# input Answer whether solubility kinetic of CCOc1ccc(CC(=O)Nc2nccs2)cc1OCC is greater than or equal to 30 µg/mL.
# output 1

# input Please indicate if the recorded solubility kinetic for Cc1cccc(-n2c(C)nc3ccccc3c2=O)c1C meets or exceeds 30 µg/mL.
# output 1

# input Textbook exercise: given the entry CCOC(=O)c1c(N)c2cc([N+](=O)[O-])cnc2n1C , state whether its solubility kinetic is greater than or equal to 30 µg/mL.
# output 0
